Test: chemical genetic growth profiling, strain panel (AID 1159580);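 further: tested at 20 µM; growth read once vehicle control cultures reached saturation at 30 °C; lower values mean less growth of the strain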
Details: S. cerevisiae deletion strains, growth OD, locus YCL011C, strain gbp2, stronger effect = lower value
About 2,000 (36%) of roughly 5,500 compounds were called active. Not shown: some 18% with an inconclusive outcome. The list shows a part of the results.
Criterion: normalized growth strictly under 1. Met: y. Not met: n.

q: Check if normalized growth falls below 1 for Cc1ccc(-c2cc(C(F)(F)F)nn2-c2ccc(S(N)(=O)=O)cc2)cc1 .
a: n

q: Check if normalized growth falls below 1 for CC1(C)CC[C@]2(C(=O)O)CC[C@]3(C)C(=CCC4[C@@]5(C)CC[C@H](O)[C@@](C)(CO)C5CC[C@]43C)C2C1 (some centres not stated) .
a: n

q: Check if normalized growth falls below 1 for C[C@@H]1OC(O[C@H]2C(O[C@H]3CC[C@@]4(C)C(CC[C@]5(C)C4CC=C4C6CC(C)(C)CC[C@]6(C(=O)O)CC[C@]45C)[C@]3(C)CO)OC[C@H](O)[C@@H]2O)[C@H](O)[C@H](O)[C@H]1O (some centres not stated) .
a: y

q: Check if normalized growth falls below 1 for CC(=O)O[C@@H]1CC[C@@]2(C)C(CC[C@]3(C)C2CC=C2C4CC(C)(C)CC[C@]4(C(=O)O)CC[C@]23C)C1(C)C (some centres not stated) .
a: y

* * *

Assay: chemical genetic growth profiling, strain panel (AID 1159580);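 further: tested at 20 µM; growth read once vehicle control cultures reached saturation at 30 °C; lower values mean less growth of the strain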
Conditions: S. cerevisiae deletion strains, growth OD, locus YKL068W
Screen size: about 5,500 compounds; about 2,000 (36%) were called active. About 18% were inconclusive and are not listed. Rule as the data show it: active = normalized growth mostly below about 0.91 (no sharp cut-off); inconclusive = no clear call, values can overlap the other calls; inactive = mostly above about 0.92. Some of the results follow.
Your reply should match one of these outcome classes. active, inactive

q: Fill in: this test's call for N#CC(O[C@@H]1O[C@H](CO[C@@H]2O[C@H](CO)[C@@H](O)[C@H](O)[C@H]2O)[C@@H](O)[C@H](O)[C@H]1O)c1ccccc1 (some centres not stated) is ___
a: inactive

q: Fill in: this test's call for Clc1ccccc1C(c1ccccc1)(c1ccccc1)n1ccnc1 is ___
a: active

q: Fill in: this test's call for CCOP(=S)(OCC)Oc1cc(C)nc(C(C)C)n1 is ___
a: inactive

q: Fill in: this test's call for CC(C)=CCCC1(C)C=Cc2c(O)c3c(c(CC=C(C)C)c2O1)OC12C(=CC4CC1C(C)(C)OC2(C/C=C(/C)C(=O)O)C4O)C3=O (configuration not stated) is ___
a: inactive

q: Fill in: this test's call for OC(CCN1CCCC1)(c1ccccc1)C1CCCCC1 (configuration not stated) is ___
a: inactive

q: Fill in: this test's call for C/C=C1\[C@H]2C=C(C)C[C@]1(N)c1ccc(=O)[nH]c1C2 is ___
a: inactive

q: Fill in: this test's call for C#C[C@]1(O)CCC2C3CCC4=CC(=O)CC[C@@H]4C3CC[C@@]21CC (some centres not stated) is ___
a: inactive

q: Fill in: this test's call for CCCCCCCCCCCC[C@H](C(=O)O)[C@@H](C)C(=O)O is ___
a: inactive

q: Fill in: this test's call for COc1ccc2c(c1)c(CC(=O)O)c(C)n2C(=O)c1ccc(Cl)cc1 is ___
a: inactive

q: Fill in: this test's call for OC(CCN1CCCCC1)(c1ccccc1)C1CCCCC1 (configuration not stated) is ___
a: inactive

q: Fill in: this test's call for CO[C@@]12[C@@H]3NC3CN1C1=C(C(=O)C(N)=C(C)C1=O)[C@@H]2COC(N)=O (some centres not stated) is ___
a: inactive

q: Fill in: this test's call for C#C[C@]1(O)CCC2C3CCC4=C(CCC(=O)C4)C3CC[C@@]21C (some centres not stated) is ___
a: inactive

q: Fill in: this test's call for O=c1oc2cc(O)ccc2s1 is ___
a: inactive

q: Fill in: this test's call for O=c1cc(CO)occ1O is ___
a: inactive

q: Fill in: this test's call for CCCOc1ccccc1-c1nc2n[nH]nc2c(=O)[nH]1 is ___
a: inactive

q: Fill in: this test's call for C[C@@H]1C(=O)O[C@H]2[C@H]1CC[C@@]1(C)C=CC(=O)[C@@]3(C)O[C@@]213 is ___
a: inactive

q: Fill in: this test's call for COC(=O)C[C@H]1C(C)(C)C2(O)OC34CC2C(=O)[C@]1(C)C3CC[C@]1(C)C4=CC(=O)O[C@H]1c1ccoc1 (some centres not stated) is ___
a: inactive

q: Fill in: this test's call for CC(C)CC(N(C)C)C1(c2ccc(Cl)cc2)CCC1 (configuration not stated) is ___
a: inactive

q: Fill in: this test's call for NNc1nncc2ccccc12 is ___
a: inactive

q: Fill in: this test's call for C/C=C(/C)C(=O)O[C@@H]1[C@H](OC(C)=O)[C@@]2(CO)C(CC1(C)C)C1=CCC3[C@@]4(C)CC[C@H](O[C@@H]5O[C@H](C(=O)O)[C@@H](O[C@@H]6O[C@H](CO)[C@@H](O)[C@H](O)[C@H]6O)[C@H](O)[C@H]5O[C@@H]5O[C@H](CO)[C@@H](O)[C@H](O)[C@H]5O)[C@](C)(CO)C4CC[C@@]3(C)[C@]1(C)C[C@H]2O (some centres not stated) is ___
a: inactive

q: Fill in: this test's call for CC1(C)CC[C@@]2(C(=O)O)C(C1)C1=CCC3[C@@]4(C)CC[C@H](O)C(C)(C)C4CC[C@@]3(C)[C@]1(C)C[C@@H]2O (some centres not stated) is ___
a: active

q: Fill in: this test's call for O=C1C(O)=C(O)C(=O)C(O)=C1O is ___
a: inactive

q: Fill in: this test's call for COc1ccc2c(c1)c(CC(=O)OCC(=O)O)c(C)n2C(=O)c1ccc(Cl)cc1 is ___
a: inactive

q: Fill in: this test's call for C[C@]12CCC(=O)C=C1CCC1C2[C@@H](O)C[C@@]2(C)C1CC[C@]2(O)C(=O)CO (some centres not stated) is ___
a: inactive

q: Fill in: this test's call for Fc1ccc(C(c2ccccc2)(c2ccccc2F)n2ccnc2)cc1 (configuration not stated) is ___
a: active

q: Fill in: this test's call for O=C(O)/C=C1\CCCc2ccccc2C1O (configuration not stated) is ___
a: inactive

q: Fill in: this test's call for CNCc1ccccc1 is ___
a: inactive

q: Fill in: this test's call for Nc1c2ccccc2nc2ccccc12 (tested in a mixture with another compound) is ___
a: inactive

q: Fill in: this test's call for C[C@@H]1CC[C@]2(C(=O)O)CC[C@]3(C)C(=CCC4[C@@]5(C)CC[C@H](O)C(C)(C)C5CC[C@]43C)C2[C@H]1C (some centres not stated) is ___
a: inactive

q: Fill in: this test's call for COC1=C[C@@H]2[C@@H]3Cc4ccc(OC)c(O)c4[C@]2(CCN3C)CC1=O is ___
a: inactive

q: Fill in: this test's call for C#C[C@]1(O)CCC2C3CCC4=CC(=O)CC[C@@H]4C3CC[C@@]21C (some centres not stated) is ___
a: inactive

q: Fill in: this test's call for COC(=O)Nc1nc2ccc(Sc3ccccc3)cc2[nH]1 is ___
a: inactive

q: Fill in: this test's call for CCOP(=S)(OCC)Oc1nc(Cl)c(Cl)cc1Cl is ___
a: inactive

q: Fill in: this test's call for CCC(C)C(NC)C(=O)O (configuration not stated) is ___
a: inactive

q: Fill in: this test's call for Cc1ccc(-c2cc(C(F)(F)F)nn2-c2ccc(S(N)(=O)=O)cc2)cc1 is ___
a: inactive

q: Fill in: this test's call for NC12CC3CC(CC(C3)C1)C2 is ___
a: inactive

q: Fill in: this test's call for NC(Cc1c[nH]c2ccccc12)C(=O)O (configuration not stated) is ___
a: inactive

q: Fill in: this test's call for Cc1cc(O)ccc1Cl is ___
a: inactive

q: Fill in: this test's call for Cc1cc(O)cc(=O)o1 is ___
a: inactive

q: Fill in: this test's call for Cc1cc(O)cc(O)c1C(=O)O is ___
a: inactive

q: Fill in: this test's call for COc1cccc(OC)c1OCCNCC1COc2ccccc2O1 (configuration not stated) is ___
a: inactive

q: Fill in: this test's call for Nc1ccc(S(=O)(=O)c2ccc(N)cc2)cc1 is ___
a: inactive
